System: HL-60(TB) leukemia
ASSAY NOTES: NCI tumour cell line growth inhibition, 48 h
ASSAY ENDPOINT: TGI

# input Fill in the recorded TGI for this molecule, with HL-60(TB) leukemia as test system: C[C@H]1C(=O)CC[C@]2(C)CCC(C(C)(C)O)CC12O (stereo partly specified)
# output > 100 µM

# input Under HL-60(TB) leukemia: TGI value of O=C(/C=C1/Nc2ccc([N+](=O)[O-])cc2NC1O)c1cccc([N+](=O)[O-])c1 (stereo unspecified) ?
# output > 100 µM

# input Param readout = TGI; param system = HL-60(TB) leukemia; param query = CCC(Oc1ccc(OC)c2ccccc(=O)c12)C(=O)O (stereo unspecified) ; response: value
# output > 100 µM

# input API: value(readout=TGI, system=HL-60(TB) leukemia) for record O=C1OC(c2ccccc2)=N/C1=C\c1cccc(F)c1
# output 61.2 µM

# input Can you look up TGI on HL-60(TB) leukemia for CN(C)CCN1C(=O)c2cccc3cccc(c23)C1=O ?
# output > 25 µM

# input Reported TGI for HL-60(TB) leukemia, given CCc1n[nH]c(=O)n1CCO ?
# output > 100 µM

---

Test system: COLO 205 colon
ASSAY NOTES: NCI tumour cell line growth inhibition, 48 h
Hi there, I'd appreciate the recorded TGI for every entry that follows.

# input Name the reported TGI value associated with the compound CC(=O)ON(C(C)=O)c1ccc(-c2nc3ccccc3s2)cc1C
# output > 100 µM

# input Fill in the blank: the reported TGI of CC(=O)C1=CCC2c3[nH]c4ccccc4c3CCN2C1 (stereo unspecified) is ____.
# output > 100 µM

# input Would you kindly share the measured TGI for CCCNc1nc2ccccc2c2c1S(=O)(=O)c1ccc(Cl)cc1C2=O ?
# output > 50 µM

# input Look up TGI for this compound: Nc1ccc([C@H]2C(=O)N[C@H]3CCC[C@H]32)cc1
# output > 100 µM

# input Any idea what its TGI is? The compound is Cc1ccc(-c2nc(N3CCCNCC3)c3oc(-c4ccc(C)cc4)nc3n2)cc1
# output 3.55 µM

# input For the compound shown here, C=C(Cl)Cc1c(O)c2c(c(O)c1CC(=C)Cl)C(=O)c1ccccc1C2=O , give the reported TGI.
# output > 100 µM

# input Look up TGI: N#CC1=C(Cl)NC(Cl)=C(C#N)C1c1c(Cl)cccc1Cl
# output 32.8 µM

# input // returns reported TGI for input O=C(CC1C(=O)Nc2ccccc2S1=O)Nc1ccc(Cl)cc1 (stereo unspecified)
# output > 100 µM

# input Request the reported TGI associated with NCCSCCc1ccccc1
# output > 100 µM

# input Recorded TGI for O=c1[nH]c2c(c(=O)[nH]1)SSC2 , please?
# output 50.7 µM

# input Entry C/C=C/[C@H](O[Si](C)(C)C(C)(C)C)[C@@H](O)/C=C/C(=O)OCC : reported TGI = ?
# output 40.6 µM

---

The following compounds have recorded GI50 on HOP-62 NSCLC.

# input // map O=C(Nc1ccc(I)cc1F)c1cc(Cl)ccc1O to recorded GI50 (system: HOP-62 NSCLC)
# output 2.21 µM

# input Lab note: need GI50 for COc1ccc(C2=CC(c3ccc(OC)c(OC)c3)c3c(c4ccccc4oc3=O)O2)cc1OC (stereo not given) on HOP-62 NSCLC, anyone have it?
# output 2.2 µM

# input Under HOP-62 NSCLC: GI50 value of Cn1c(=O)c(Oc2ccc(F)cc2F)cc2cnc(NCCS(C)(=O)=O)nc21 ?
# output > 25 µM

# input Tell me reported GI50 for COC(=O)[C@@H](C)C[C@H](Cc1ccccc1)NC(=O)c1csc([C@@H](C[C@H](C(C)C)N(C)C(=O)[C@H](C)NC(=O)[C@H]2CCCCN2C)OC(C)=O)n1 , tested with HOP-62 NSCLC.
# output 3.27 µM

# input Give recorded GI50 with HOP-62 NSCLC for the following compound: O=C1NCCS(=O)(=O)/C1=C\C=C\c1cccc(C(F)(F)F)c1
# output 3.72 µM

---

Tested on: LXFL 529 NSCLC
ASSAY NOTES: NCI tumour cell line growth inhibition, 48 h
ASSAY ENDPOINT: TGI

# input What value of TGI has been recorded for this entry: C=C(Cl)Cc1c(O)c2c(c(O)c1CC(=C)Cl)C(=O)c1ccccc1C2=O
# output > 100 µM

# input Request the reported TGI associated with COc1ccc2c(c1OC)C(=O)c1cnccc1C2=O
# output > 100 µM

# input Fill in the blank: the reported TGI of COC(=O)CCC(=O)NC1C2CC3CC(C2)CC1C3 (stereo unspecified) is ____.
# output > 100 µM

# input Could you tell me which TGI is on file for COc1ccc(CCNCCCC2c3ccccc3-c3ccccc32)cc1OC ?
# output 27.5 µM

# input Give its TGI value. Item: O=C(O)/C=C/C(=O)N1C/C(=C\c2ccccc2)C(=O)/C(=C/c2ccccc2)C1
# output 3.72 µM

# input Recorded TGI for Cc1ccc(NC(=O)C(=O)Cc2cc[n+]([O-])cc2)cc1 , please?
# output > 100 µM

---

System: RPMI-8226 leukemia
ASSAY NOTES: NCI tumour cell line growth inhibition, 48 h
ASSAY ENDPOINT: TGI (µM)
Note: unit µM is implicit; provide only the numeric part.

# input What measured TGI goes with COc1cc(Cl)cc(-c2nn(-c3cccc(NC(=O)Nc4ccc(Cl)c(C(F)(F)F)c4)c3)cc2-c2ccncc2)c1 ?
# output 2.07

# input For c1ccc(CNc2nc(Nc3ccccc3)nc3ccccc23)cc1 , what is its reported TGI?
# output 4.42

# input Given the compound COc1ccc(Nc2cc(C)nc(N3CCN(c4ccnc5cc(Cl)ccc45)CC3)n2)cc1 , what is its reported TGI?
# output 8.91

# input Recorded TGI for CNCCC=C1c2ccccc2CCc2ccccc21 , please?
# output 32.8

# input Dear colleague, I am looking for the recorded TGI of the following compound: CSc1cccc(NC(=O)OC2CCCCCCCCCCC2)c1
# output 54.4

# input Bench note: what TGI did CC1(C)O[C@@H](CBr)C[C@H](C[C@H]2C[C@@H](O)C[C@@H](CCOCc3ccccc3)O2)O1 show?
# output 97

# input Name the recorded TGI for Cc1cccc2c(N)c3ccccc3nc12 .
# output 6.73

# input Which TGI is reported for this compound? O=S(=O)(NCCNc1nccc(-c2c(-c3ccc(F)cc3)nc3sccn23)n1)c1ccccc1
# output 33

# input Requested read-out: TGI. Entry: CCN(CC)CCOc1ccc(C(=O)/C=C\c2ccc(Cl)cc2Cl)cc1
# output 6.34

# input Need TGI of COc1ccc(Nc2c3ccccc3nc3[nH]c4ccccc4c23)cc1 , thanks.
# output 33.4

# input Fill blank: measured TGI of the compound CN(C)Cc1cc(N=Nc2ccc(Cl)cc2)ccc1OC(=O)c1ccccc1 is ____.
# output 40.7

# input Param item = N#Cc1c(N2CCOCC2)[nH]c(=O)c(C(c2c(Cl)cccc2Cl)c2c(O)c(C#N)c(N3CCOCC3)[nH]c2=O)c1O ; retrieve measured TGI.
# output 60.8

# input What value of TGI has been reported for the following compound? COc1ccc(CCNCCCC2c3ccccc3-c3ccccc32)cc1OC
# output 22

---

Please provide measured TGI for the entries that follow.
System: NCI-H23 lung
ASSAY NOTES: NCI tumour cell line growth inhibition, 48 h
Record the value in µM, omitting the unit from your answer.

# input Which TGI reading was recorded for the compound CNC(=O)OCC1C2=C(C(=O)C(C)=C(N)C2=O)N2CC3C(N3C)C12OC (stereo unspecified) ?
# output 16.3

# input Using the record for O=C(CCN1CCOCC1)C(=Cc1ccccc1)C(=O)CCN1CCOCC1 , report its TGI.
# output 7.92

# input Name the reported TGI value associated with the compound CC(C)(C)OC(=O)N(CCCCNCc1ccc2ccccc2c1)CCCNCc1ccc2ccccc2c1
# output 3.42

# input Reported TGI for O=C1CC(c2ccc(Cl)cc2)Oc2ccccc21 (stereo unspecified) : what is it?
# output 40.2

# input Return reported TGI; argument: C=CCN1CN(c2ccccc2)C2(CCN(CCCC3(c4ccc(F)cc4)OCCO3)CC2)C1=O
# output 30

---

So I've got a bunch of molecules here, and I need their log10 TGI values.
Test system: RXF 393 renal
ASSAY NOTES: NCI tumour cell line growth inhibition, 48 h
Log10 applied to TGI; unit prior to transform: µM.

# input Give its log10 TGI value. Item: O=C1NCCS(=O)(=O)/C1=C\C=C\c1cccc(C(F)(F)F)c1
# output 0.73

# input Quick one: log10 TGI of CCN(CC)CCSCCCNc1c2ccc(Cl)cc2nc2ccc(OC)cc12 ?
# output 0.38

# input Fill in the blank: the reported log10 TGI of COc1cc(C(=O)Oc2c(C#N)sc3c2c(=O)n(-c2ccccc2)c(=S)n3-c2ccccc2)cc(OC)c1OC is ____.
# output 1.68

# input For O=C1c2ccccc2C(=O)c2oc(Br)cc21 , what is its reported log10 TGI?
# output 0.46

# input Please give the measured log10 TGI for this molecule: COc1ccc2nc(NC(=O)c3cccnc3Nc3cc(OC)c(OC)c(OC)c3)sc2c1
# output 0.95

Data provenance is PubChem BioAssay (NCI).
